# Test system: switchgrass (Panicum virgahim L.) (SG)
# methodDescription: Preemergence herbicide test, soil drench, switchgrass
# Type: in vivo
# experimentalParameters: Panicum, 336 h, 10 lbs/A (11.2 kg/ha) soil drench, two weeks after treatment, vs untreated checks, read-out: Percent Weed Control SG
reportedMetric: pest or weed control at 11208.5 g/ha (%)
Give just the numeric value; % need not be written.

Example entries and their recorded answers appear below.
compound | uom | pest or weed control at 11208.5 g/ha
FC(F)(F)C(F)(F)C1=NC(C(F)(F)F)(C(F)(F)F)N=C(c2ccc(Br)cc2)O1 [Compound 25] | % | 100
Fc1ccc(C2=NC(C(F)(F)F)(C(F)(F)F)N=C(C(F)(F)C(F)(F)F)O2)cc1Cl [Compound 20] | % | 100
Fc1ccc(C2=NC(C(F)(F)F)(C(F)(F)F)N=C(C(F)(F)C(F)(F)F)O2)cc1 [Compound 17] | % | 50

Consider the record given below.
[ask] Sample FC(F)(F)C1=NC(C(F)(F)F)(C(F)(F)F)N=C(c2ccc(Cl)cc2)O1 [Compound 5] — what was its pest or weed control at 11208.5 g/ha?
[reply] 100
